Examples of compounds with documented Weight gain during 24 hrs at RH = 80%,% follow.
experimental-details: Hygroscopicity test: weight gain of solid sample in humidity chamber at RH=80%
Type: physicochemical
measurement-conditions: RH = 80%, 24 hrs
Quick reminder: number only, in %, skip the unit.

compound	unit-symbol	Weight gain during 24 hrs at RH = 80%,%
CCO.CCOC(=O)[C@@H](N)Cc1ccc(O)c(O)c1.CCOC(=O)[C@@H](N)Cc1ccc(O)c(O)c1.O=C(O)CCC(=O)O [Example 22, LDEE Succinate Ethanolate]	%	2.9

Query :: Read the entry CCOC(=O)C(N)Cc1ccc(O)c(O)c1.O=C(O)C(O)c1ccccc1 (stereo not drawn) [Example 17, LDEE R(−)Mandelate] and write its reported Weight gain during 24 hrs at RH = 80%,%.
Result :: 5.4

Query :: Identify measured Weight gain during 24 hrs at RH = 80%,% corresponding to CCOC(=O)[C@@H](N)Cc1ccc(O)c(O)c1.CCOC(=O)[C@@H](N)Cc1ccc(O)c(O)c1.O.O.O=C(O)/C=C/C(=O)O [Example 25, LDEE Fumarate Dihydrate]
Result :: 0.04

Query :: Retrieve Weight gain during 24 hrs at RH = 80%,% measured for CCOC(=O)[C@@H](N)Cc1ccc(O)c(O)c1.CS(=O)(=O)O [Example 3, LDEE Mesylate] and print it.
Result :: 17.5

Query :: Quote Weight gain during 24 hrs at RH = 80%,% reported for CCO.CCOC(=O)[C@@H](N)Cc1ccc(O)c(O)c1.O=C(O)/C=C\C(=O)O [Example 28, LDEE Maleate Ethanolate] please.
Result :: 3.1

Query :: Entry CCOC(=O)[C@@H](N)Cc1ccc(O)c(O)c1.O=C(O)C(O)C(O)C(=O)O [Example 6, LDEE D(−)Tartrate] needs its Weight gain during 24 hrs at RH = 80%,% filled in; supply it.
Result :: 6.7
